system: human cervix carcinoma HeLa cells; experiment: MTT assay, HeLa cells; assay type: cell-based; conditions: 72-h incubation, Table 5
ENDPOINT_LABEL: pIC50
pIC50 (log units): -log10 of the concentration in mol/L.

GET /values?readout=pIC50&item= O=[N+]([O-])[O-].[NH3+][Pt-2]([NH3+])([Cl])[n+]1cccc2ccccc21 (stereo not drawn) [cis-[Pt(NH3)2(quinoline)Cl]NO3]
4.91

====

tested on: human lung carcinoma A549 cells; assay: MTT assay, A549 cells; type: cell-based; details: A549 (Lung), 72-h incubation, Table 3
ENDPOINT_LABEL: IC50 (µM)
Numeric only. Scale: µM

GET /values?readout=IC50&item= O=C1[O][Pt]2([NH][C@@H]3CCCC[C@H]3[NH]2)[O]C1=O
8.79
